// provenance: patent US20240294551A1

Target: GDP-bound KRAS protein (aa 1-169), containing both G12D and C118A amino acid substitutions (Homo sapiens (Human), UniProt P01116, C118A/G12D)
Sequence (P01116 other isoform, or with tags, fused parts or gaps G12D/C118A): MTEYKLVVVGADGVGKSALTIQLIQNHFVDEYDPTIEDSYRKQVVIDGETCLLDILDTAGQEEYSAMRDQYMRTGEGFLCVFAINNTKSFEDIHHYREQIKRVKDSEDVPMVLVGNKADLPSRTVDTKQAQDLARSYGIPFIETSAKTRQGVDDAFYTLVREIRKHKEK
Assay: KRAS G12D Coupled Nucleotide Exchange Assay
Type: biochemical
Settings: 2 hours compound pre-incubation; read-out: KRAS G12D Coupled Exchange
Counter-ions that a name gives are not always drawn.
MEASUREMENT LABEL: IC50 (nM)
Give bare numbers, in nM.

Observe how each entry below is paired with its result.
COMPOUND	IC50 (nM)
CN(C)CC1(COc2nc3c4cnc(c(F)c4n2)-c2c(c(Cl)cc4[nH]ncc24)CCCCOCC2(F)CCCCN3C2)CC1 (stereo in doubt) [Example 400]	8
Fc1c2ncc3c(nc(OC[C@@]45CCCN4C[C@H](F)C5)nc13)N1CCC[C@@H](Cc3nnc(o3)CCc3c(Cl)cc4[nH]ncc4c3-2)C1	2
Fc1c2ncc3c(nc(OC[C@@]45CCCN4C[C@H](F)C5)nc13)N1CCO[C@@H](COCC[C@H]3C[C@H]3c3c(Cl)cc4[nH]ncc4c3-2)C1	1170
OC1CCCCc2c(Cl)cc3[nH]ncc3c2-c2ncc3c(nc(OC[C@@]45CCCN4C[C@H](F)C5)nc3c2F)N2CCC[C@@H](C1)C2 (mixture of isomers) [Example 385, bis(2,2,2-trifluoroacetate) salt]	16
O=C1CCCCc2c(Cl)cc3[nH]ncc3c2-c2ncc3c(nc(OC[C@@]45CCCN4C[C@H](F)C5)nc3c2F)N2CC[C@@H]3[C@H](C2)N1CC3(F)F	2
Fc1c2ncc3c(nc(OC[C@@]45CCCN4C[C@H](F)C5)nc13)N1CCCCC(C1)c1noc(n1)CCCc1c(Cl)cc3[nH]ncc3c1-2 (mixture of isomers)	3
O=C1CCCCc2c(Cl)cc3[nH]ncc3c2-c2ncc3c(nc(OC[C@@]45CCCN4C[C@H](F)C5)nc3c2F)N2CCC[C@@H](C1)C2	2

Moving on to another compound below.
Documented IC50 of O[C@H]1C[C@@H]2CN(C1)c1nc(OC[C@@]34CCCN3C[C@H](F)C4)nc3c(F)c(ncc13)-c1c(c(Cl)cc3[nH]ncc13)CCCc1nc2no1 [Example 378] : 15

* * *

Target: GDP-bound KRAS protein (aa 1-169), containing both G12D and C118A amino acid substitutions (Homo sapiens (Human), UniProt P01116, C118A/G12D)
Assay: KRAS G12D Coupled Nucleotide Exchange Assay
Format: biochemical
Settings: read-out: KRAS G12D Coupled Exchange IC50
So basically: is IC50 under 4 nM? Then rule met. Not under? Then rule not met.

Completed entries (count: 5):
COMPOUND	CLASS ASSIGNMENT
Cc1cc2[nH]ncc2c2c1/C=C/COC(=O)O[C@@H]1CCCN(C1)c1nc(OC[C@@]34CCCN3C[C@H](F)C4)nc3c(F)c-2ncc13	rule not met
O=C1OCCc2c(F)cc3[nH]ncc3c2-c2ncc3c(nc(OC[C@@]45CCCN4C[C@H](F)C5)nc3c2F)N2CCC[C@]3(C2)C[C@H](C3)O1	rule met
CN1CCN(c2nc3c4cnc(c(F)c4n2)-c2c(c(Cl)cc4[nH]ncc24)CCCOC(=O)O[C@@H]2COCCN3C2)CC1	rule not met
C[C@@]12CCCN(C1)c1nc(OC[C@@]34CCCN3C[C@H](F)C4)nc3c(F)c(ncc13)-c1cc(O)cc3cccc(c13)CCCC(=O)N2 [Example 3, bis(2,2,2-trifluoroacetate)]	rule met
O=C1N[C@H]2CC[C@@H](O)CN(C2)c2nc(OC[C@@]34CCCN3C[C@H](F)C4)nc3c(F)c(ncc23)-c2c(c(Cl)cc3[nH]ncc23)CCCO1 (racemic)	rule not met

Is 4 nM strictly greater than the compound's reported IC50? compound: "Fc1c2ncc3c(nc(OC[C@@]45CCCN4C[C@H](F)C5)nc13)N1CCO[C@@H](COCCOCc3c(Cl)cc4[nH]ncc4c3-2)C1" rule not met

Is 4 nM strictly greater than the compound's reported IC50? compound: O=C1CC2CCCN(C2)c2nc(OC[C@@]34CCCN3C[C@H](F)C4)nc3c(F)c(ncc23)-c2cccc3cccc(c23)CCO1 (some centres unmarked) rule not met

Is 4 nM strictly greater than the compound's reported IC50? compound: "O=C1OCCCc2c(Cl)cc3[nH]ncc3c2-c2ncc3c(nc(OC[C@@]45CCCN4C[C@H](F)C5)nc3c2F)N2CCCC[C@@](CF)(C2)O1" rule not met

Is 4 nM strictly greater than the compound's reported IC50? compound: "CN1C(=O)OCCCc2c(Cl)cc3[nH]ncc3c2-c2ncc3c(nc(OC[C@@]45CCCN4C[C@H](F)C5)nc3c2F)N2CCC[C@@H]1C2" rule met

Is 4 nM strictly greater than the compound's reported IC50? compound: "Cc1cc2[nH]ncc2c2c1CCCCC(=O)N[C@@H]1COCCN(C1)c1nc(OC[C@@]34CCCN3C[C@H](F)C4)nc3c(F)c-2ncc13" rule not met

Is 4 nM strictly greater than the compound's reported IC50? compound: "Cc1cc2[nH]ncc2c2c1CCCCO[C@@H](C)[C@@H]1CN(CCO1)c1nc(OC[C@@]34CCCN3C[C@H](F)C4)nc3c(F)c-2ncc13" rule not met

Is 4 nM strictly greater than the compound's reported IC50? compound: "C[C@@]12CCCN(C1)c1nc(OC[C@@]34CCCN3C[C@H](F)C4)nc3c(F)c(ncc13)-c1cccc3ccc(F)c(c13)CC[C@@H](F)C(=O)N2" rule not met
